Values were extracted from patent US20260116991A1.

# Lookup of reported OD450 at 0.1 nM keyed by entry
# TARGET OF ASSAY: T1, monkey GPC3-His protein (monkey)
# T1 construct: Bought recombinant protein; also called monkey GPC3 protein
# MEASUREMENT PROTOCOL: ELISA, monkey GPC3-His coated;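 further: Plate-coated antigen at 1 µg/mL, antibody binding 2 h at 37 °C, detected with HRP-labeled secondary antibody and TMB, absorbance at 450 nm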
Form entry: value (OD450) — number only.

Example binders with recorded OD450 at 0.1 nM:
{"BINDER": "F2.152.3 (antibody, human IgG1, kappa, V domains shown, Human-murine chimeric antibody) VH: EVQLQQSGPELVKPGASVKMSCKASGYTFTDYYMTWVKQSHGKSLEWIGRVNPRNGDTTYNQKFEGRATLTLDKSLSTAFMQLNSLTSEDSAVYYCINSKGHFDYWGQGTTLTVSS VL: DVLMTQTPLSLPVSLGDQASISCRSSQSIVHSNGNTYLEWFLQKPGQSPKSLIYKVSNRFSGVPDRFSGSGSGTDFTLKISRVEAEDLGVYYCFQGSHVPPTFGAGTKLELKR", "MEASURE NAME": "OD450 at 0.1 nM", "UOM": "OD450", "VALUE REPORTED": 1.92}
{"BINDER": "F3.54.12 (antibody, human IgG1, kappa, V domains shown, Human-murine chimeric antibody) VH: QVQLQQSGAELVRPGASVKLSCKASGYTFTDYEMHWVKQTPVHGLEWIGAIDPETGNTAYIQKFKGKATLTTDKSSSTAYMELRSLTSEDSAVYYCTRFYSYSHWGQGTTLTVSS VL: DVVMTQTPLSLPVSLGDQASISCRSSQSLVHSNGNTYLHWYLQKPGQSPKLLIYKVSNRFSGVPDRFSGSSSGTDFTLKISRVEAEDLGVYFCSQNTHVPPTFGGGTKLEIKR", "MEASURE NAME": "OD450 at 0.1 nM", "UOM": "OD450", "VALUE REPORTED": 1.57}

Turning now to a further record.
IN: Give the measured OD450 at 0.1 nM of F1.115.8 (antibody, human IgG1, kappa, V domains shown, Human-murine chimeric antibody) VH: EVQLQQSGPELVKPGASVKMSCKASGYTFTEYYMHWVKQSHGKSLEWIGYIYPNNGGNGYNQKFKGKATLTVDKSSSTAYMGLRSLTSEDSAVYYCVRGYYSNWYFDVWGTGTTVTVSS VL: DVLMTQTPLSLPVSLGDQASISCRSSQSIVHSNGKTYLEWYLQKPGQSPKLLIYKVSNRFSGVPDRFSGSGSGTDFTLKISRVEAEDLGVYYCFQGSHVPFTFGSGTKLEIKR .
OUT: 1.33
